Provide the reported pKi of each item.
biological target: human 5-HT1A -serotoninergic receptor (Homo sapiens); construct: cell membranes; assay: Radioreceptor binding to recombinant 5-HT1A receptors ([3H]8-OH-DPAT, HeLa cell membranes); details: [3H]8-OH-DPAT 0.2-1 nM, 30 min at 30° C., read-out: Binding affinity for the 5-HT1A receptor, Ki
Give bare numbers, as −log10 of the molar value.

Sample answers from the record:
N#Cc1ccccc1N1CCN(CCN(C(=O)C2CCCCC2)c2ccccn2)CC1: 9.51
COc1cc(N)ccc1N1CCN(CCN(C(=O)C2CCCCC2)c2ccccn2)CC1: 7.84
O=C(C1CCCCC1)N(CCN1CCN(c2ccccc2OCC(F)(F)F)CC1)c1ccccn1: 9.05
O=C(C1CCCCC1)N(CCN1CCN(Cc2cc(Cl)ccc2Cl)CC1)c1ccccn1: 9.92

Pending molecule:
Query: Quick one: pKi of "O=C(C1CCCCC1)N(CCN1CCN(c2cc(Cl)ccc2Cl)CC1)c1ccccn1" ?
Result: 9.35

###

System: rhythmic bladder voiding contractions
Assay: Effects on volume-induced rhythmic bladder voiding contractions in anaesthetized rats
Format: in vivo, Female Sprague Dawley rats
Conditions: 1000 μg/kg i.v.; mean ± S.E.
Description: The animals were housed with free access to food and water and were maintained on a forced 12 h alternating light-dark cycle at 22-24° C. for at least one week, except during the experiment. […] After cessation of the effect of drug injection, the height of the peaks was compared with that previously recorded after the intravenous administration of vehicle alone.
Threshold-based label: Bladder Quiescence (disappearance time of contractions) under 20 min gives t, Bladder Quiescence (disappearance time of contractions) not under 20 min gives f.

CCN(CC)CC#CCOC(=O)C(O)(c1ccccc1)C1CCCCC1 (centres unmarked) [Oxybutynin, reference compound]: t

Query: Item "O=C(C1CCCCC1)N(CCN1CCN(c2ccccc2OCC(F)(F)F)CC1)c1ccccn1" : Bladder Quiescence (disappearance time of contractions) beneath 20 min, strictly?
Result: f

###

target: human 5-HT1A -serotoninergic receptor (Homo sapiens, UniProt P08908); construct: cell membranes; assay: Radioreceptor binding to recombinant 5-HT1A receptors ([3H]8-OH-DPAT, HeLa cell membranes); details: [3H]8-OH-DPAT 0.2-1 nM, 30 min at 30° C., read-out: Binding affinity for the 5-HT1A receptor, Ki
Sequence (P08908 whole entry): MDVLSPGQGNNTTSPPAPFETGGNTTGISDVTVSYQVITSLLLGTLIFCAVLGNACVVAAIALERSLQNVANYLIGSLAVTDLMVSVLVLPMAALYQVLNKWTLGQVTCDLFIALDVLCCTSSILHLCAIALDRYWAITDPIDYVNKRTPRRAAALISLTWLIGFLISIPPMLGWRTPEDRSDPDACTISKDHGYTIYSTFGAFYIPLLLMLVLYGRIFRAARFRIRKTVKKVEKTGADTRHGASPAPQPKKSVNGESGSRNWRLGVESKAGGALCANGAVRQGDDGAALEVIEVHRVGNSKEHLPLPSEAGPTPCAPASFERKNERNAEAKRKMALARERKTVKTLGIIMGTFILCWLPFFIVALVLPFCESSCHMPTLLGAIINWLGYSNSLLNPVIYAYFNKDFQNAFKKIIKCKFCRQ
endpoint.label: Ki (nM)
Answers are plain numbers, in nM.

Known Ki results, listed for orientation:
COc1cc(NC(C)=O)ccc1N1CCN(CCN(C(=O)C2CCCCC2)c2ccccn2)CC1: 8.15
O=C(C1CCCCC1)N(CCN1CCN(c2cc(Cl)ccc2OCC(F)(F)F)CC1)c1ccccn1: 1.51

Next:
Query: For human 5-HT1A -serotoninergic receptor (Homo sapiens, UniProt P08908), provide Ki of "O=C(C1CCCCC1)N(CCN1CCN(c2ccccc2OC(F)(F)F)CC1)c1ccccn1" please.
Result: 0.86

###

tested on: rhythmic bladder voiding contractions; assay: Effects on volume-induced rhythmic bladder voiding contractions in anaesthetized rats; type: in vivo, Female Sprague Dawley rats; settings: 1000 μg/kg i.v.; mean ± S.E.
endpoint.label: Bladder Quiescence (disappearance time of contractions) (min)
Give bare numbers, in min.

Below are worked cases with known answers.
Cc1c(-c2ccccc2)oc2c(C(=O)OCCN3CCCCC3)cccc2c1=O [Flavoxate, reference compound]: 3.04
COc1cc(N)ccc1N1CCN(CCN(C(=O)C2CCCCC2)c2ccccn2)CC1 [Ex. 6]: 15.00

Record Bladder Quiescence (disappearance time of contractions) for all entries; do not skip any.
1. O=C(C1CCCCC1)N(CCN1CCN(c2ccccc2OC(F)(F)F)CC1)c1ccccn1 [Ex. 1]
2. COc1cc(NS(C)(=O)=O)ccc1N1CCN(CCN(C(=O)C2CCCCC2)c2ccccn2)CC1 [Ex. 8]
3. O=C(C1CCCCC1)N(CCN1CCN(c2cc(Cl)ccc2OCC(F)(F)F)CC1)c1ccccn1 [Ex. 3]
4. COc1cc(NC(C)=O)ccc1N1CCN(CCN(C(=O)C2CCCCC2)c2ccccn2)CC1 [Ex. 7]

Result:
1: 16.25; 2: 7.20; 3: 10.13; 4: 20.63
